test: Drug uptake in plasma of diet-induced obese C57BL/6J mouse model at 3 mg/kg, po administered as daily dose measured at 2 hrs post last dose on day 22; format: ADME, organism-based
measure-name: concentration at 2 h
Report field: quantity (unit follows the number).

Complete the entry with concentration at 2 h for `O=c1cc(NC2CCN(S(=O)(=O)C(F)(F)F)CC2)c2cc(C(c3ccc(Cl)cc3)c3ccc(Cl)cc3)ccc2[nH]1`
2550 nM

====

test: Ratio of drug level in C57BL/6J mouse brain to plasma at 20 mg/kg, po measured after 1 hr; type: ADME, organism-based; conditions: read-out: BPR
measure-name: Kp at 1 h
Simply state the number, no unit and no words.

Give Kp at 1 h for `O=c1cc(NC2CCN(S(=O)(=O)C(F)(F)F)CC2)c2cc(C(c3ccc(Cl)cc3)c3ccc(Cl)cc3)ccc2[nH]1`
0.0073
